# Experiment description: Cytotoxicity against human MT4 cells by MTT assay
# Assay type: cell-based

Smiles code	Relation	CC50 [µg/mL]
C=CCNC(=S)Nc1ccc(-c2n[nH]c(=S)n2CC=C)cc1	=	65.4
CNC(=S)Nc1ccc(-c2n[nH]c(=S)n2-c2ccccc2)cc1	=	94.4
C=CCNC(=S)Nc1ccc(-c2n[nH]c(=S)n2CCCCCC)cc1	=	10.1
C=CCNC(=S)Nc1ccc(-c2n[nH]c(=S)n2CCc2ccccc2)cc1	=	13
C=CCNC(=S)Nc1ccc(OCc2n[nH]c(=S)n2CC)cc1	=	75.9
C=CCNC(=S)Nc1ccc(-c2n[nH]c(=S)n2-c2ccccc2)cc1	=	55.1
CCCCCCNC(=S)Nc1ccc(-c2n[nH]c(=S)n2C)cc1	=	8.82
C=CCn1c(COc2ccc(N)cc2)n[nH]c1=S	>	125
Cn1c(COc2ccc(NC(=S)Nc3ccccc3)cc2)n[nH]c1=S	≥	87.8
Cn1c(-c2ccc(NC(=S)Nc3ccccc3)cc2)n[nH]c1=S	=	42.8
